Target: aggregated amyloid peptide Aβ1-40 (Homo sapiens)
Sequence (P05067 672-711 limits assumed): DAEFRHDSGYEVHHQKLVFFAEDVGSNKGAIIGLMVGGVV
Experiment: In vitro Aβ1-40 binding affinity by fluorescence titration
Details: ratio of Kd vs compound 4
fold weaker Aβ binding affinity compared to 4 overview
reported_metric: fold weaker Aβ binding affinity compared to 4 (fold)

Oc1ccc(C#Cc2ccc(C#Cc3ccc(O)cc3)cc2)cc1 [Compound 17] : 6
Oc1ccc(/C=C/c2ccc(/C=C/c3cccc(O)c3)cc2)cc1 [Compound 12] : 370
Oc1ccccc1/C=C/c1ccc(/C=C/c2ccccc2O)cc1 [Compound 9, (E,E)-1,4-bis(2-hydroxystyryl)benzene] : 84
Oc1ccc(/C=C/c2ccc(/C=C/c3ccccc3)cc2)cc1 [Compound 11] : 16
